meta.source: the supplement of paper PMC11732987

# assayed.system: OTUD6B (UniProt Q8N6M0)
# Sequence (whole entry): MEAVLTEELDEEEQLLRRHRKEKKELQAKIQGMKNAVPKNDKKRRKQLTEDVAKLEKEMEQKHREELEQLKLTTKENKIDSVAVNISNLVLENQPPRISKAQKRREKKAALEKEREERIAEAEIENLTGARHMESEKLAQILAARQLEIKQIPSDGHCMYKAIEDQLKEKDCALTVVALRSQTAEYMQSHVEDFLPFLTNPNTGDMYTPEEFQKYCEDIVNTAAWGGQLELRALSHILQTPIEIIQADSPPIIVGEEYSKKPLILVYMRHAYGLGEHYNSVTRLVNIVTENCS
# assay.summary: log2 ratio of Biotin-Ahx-Ub-VS probe labelling (fragment/DMSO); higher = less target engagement (more negative = stronger competition), active = hit call of the paper (q ≤ 0.05, log2 ratio ≤ -1)
# experimental.parameters: compound concentration: 200 uM; treatment time: 3 h
log2 ratio of Biotin-Ahx-Ub-VS probe labelling for assorted compounds
In your answer, state the number alone without any accompanying words.

compound | assayed.system | readout.number
O=C(CCl)N1CCc2[nH]c3ccccc3c2C1 | OTUD6B (UniProt Q8N6M0) | -0.206

Next compound, log2 ratio of Biotin-Ahx-Ub-VS probe labelling to be filled in.
Asked: Look up log2 ratio of Biotin-Ahx-Ub-VS probe labelling: O=C(CCl)N[C@H]1CC[C@@H](CO)CC1
Given back: -0.662

* * *

# assayed.system: USP15 (UniProt Q9Y4E8)
# Sequence (Q9Y4E8 whole entry, the tested form may be a part): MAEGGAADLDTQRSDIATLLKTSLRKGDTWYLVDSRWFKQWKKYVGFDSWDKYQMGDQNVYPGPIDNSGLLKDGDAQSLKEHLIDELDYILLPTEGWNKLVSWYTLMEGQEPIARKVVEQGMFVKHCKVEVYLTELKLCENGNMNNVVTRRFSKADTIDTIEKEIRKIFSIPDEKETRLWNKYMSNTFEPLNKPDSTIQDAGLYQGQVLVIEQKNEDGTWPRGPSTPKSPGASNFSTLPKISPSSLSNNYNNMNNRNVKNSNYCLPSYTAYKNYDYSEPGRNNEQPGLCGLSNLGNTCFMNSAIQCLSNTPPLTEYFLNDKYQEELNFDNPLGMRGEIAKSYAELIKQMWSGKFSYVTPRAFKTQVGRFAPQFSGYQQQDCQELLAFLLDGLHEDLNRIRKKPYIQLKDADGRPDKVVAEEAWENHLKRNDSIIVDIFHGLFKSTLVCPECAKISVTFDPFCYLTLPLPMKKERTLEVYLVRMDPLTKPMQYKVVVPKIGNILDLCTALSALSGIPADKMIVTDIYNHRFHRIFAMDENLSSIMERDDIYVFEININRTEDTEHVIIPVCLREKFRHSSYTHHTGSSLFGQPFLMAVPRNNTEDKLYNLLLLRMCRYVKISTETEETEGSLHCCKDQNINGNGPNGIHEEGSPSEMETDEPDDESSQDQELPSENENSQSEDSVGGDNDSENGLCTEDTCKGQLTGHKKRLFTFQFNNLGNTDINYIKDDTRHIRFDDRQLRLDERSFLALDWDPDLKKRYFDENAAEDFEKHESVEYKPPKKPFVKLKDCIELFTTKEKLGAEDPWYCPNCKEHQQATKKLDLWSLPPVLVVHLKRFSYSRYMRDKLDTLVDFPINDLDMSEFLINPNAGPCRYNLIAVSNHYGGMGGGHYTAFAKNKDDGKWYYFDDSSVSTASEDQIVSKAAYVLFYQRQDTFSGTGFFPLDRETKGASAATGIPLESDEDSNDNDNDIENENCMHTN
# assay.summary: log2 ratio of Biotin-Ahx-Ub-VS probe labelling (fragment/DMSO); higher = less target engagement (more negative = stronger competition), active = hit call of the paper (q ≤ 0.05, log2 ratio ≤ -1)
# experimental.parameters: compound concentration: 200 uM; treatment time: 3 h
The threshold is inclusive: log2 ratio of Biotin-Ahx-Ub-VS probe labelling of exactly -0.2 counts as true (1); values below receive false (0).

molecule | assayed.system | class.label
Cc1n[nH]c(=O)c2c(NC(=O)CCl)oc(C)c12 | USP15 (UniProt Q9Y4E8) | true (1)
Cc1noc(N2CCN(C(=O)CCl)CC2)n1.Cl | USP15 (UniProt Q9Y4E8) | false (0)
CN(C)C(=O)c1ccc(CNC(=O)CCl)cc1 | USP15 (UniProt Q9Y4E8) | true (1)
Cc1c(C#N)c(NC(=O)CCl)n(Cc2ccco2)c1C | USP15 (UniProt Q9Y4E8) | false (0)

Asked: Decide: is the reported value of log2 ratio of Biotin-Ahx-Ub-VS probe labelling for Cl.O=C(CCl)N[C@H]1C[C@@H](n2cccn2)C1 equal to or greater than -0.2?
Given back: false (0)

Asked: Decide: is the reported value of log2 ratio of Biotin-Ahx-Ub-VS probe labelling for CCN(Cc1ccc(C#N)cc1F)C(=O)CCl equal to or greater than -0.2?
Given back: false (0)

Asked: Decide: is the reported value of log2 ratio of Biotin-Ahx-Ub-VS probe labelling for O=C(CCl)N1CCC(c2nc3ccccc3o2)CC1 equal to or greater than -0.2?
Given back: false (0)

* * *

# assayed.system: VCPIP1 (UniProt Q96JH7)
# Sequence (Q96JH7 whole entry, the tested form may be a part): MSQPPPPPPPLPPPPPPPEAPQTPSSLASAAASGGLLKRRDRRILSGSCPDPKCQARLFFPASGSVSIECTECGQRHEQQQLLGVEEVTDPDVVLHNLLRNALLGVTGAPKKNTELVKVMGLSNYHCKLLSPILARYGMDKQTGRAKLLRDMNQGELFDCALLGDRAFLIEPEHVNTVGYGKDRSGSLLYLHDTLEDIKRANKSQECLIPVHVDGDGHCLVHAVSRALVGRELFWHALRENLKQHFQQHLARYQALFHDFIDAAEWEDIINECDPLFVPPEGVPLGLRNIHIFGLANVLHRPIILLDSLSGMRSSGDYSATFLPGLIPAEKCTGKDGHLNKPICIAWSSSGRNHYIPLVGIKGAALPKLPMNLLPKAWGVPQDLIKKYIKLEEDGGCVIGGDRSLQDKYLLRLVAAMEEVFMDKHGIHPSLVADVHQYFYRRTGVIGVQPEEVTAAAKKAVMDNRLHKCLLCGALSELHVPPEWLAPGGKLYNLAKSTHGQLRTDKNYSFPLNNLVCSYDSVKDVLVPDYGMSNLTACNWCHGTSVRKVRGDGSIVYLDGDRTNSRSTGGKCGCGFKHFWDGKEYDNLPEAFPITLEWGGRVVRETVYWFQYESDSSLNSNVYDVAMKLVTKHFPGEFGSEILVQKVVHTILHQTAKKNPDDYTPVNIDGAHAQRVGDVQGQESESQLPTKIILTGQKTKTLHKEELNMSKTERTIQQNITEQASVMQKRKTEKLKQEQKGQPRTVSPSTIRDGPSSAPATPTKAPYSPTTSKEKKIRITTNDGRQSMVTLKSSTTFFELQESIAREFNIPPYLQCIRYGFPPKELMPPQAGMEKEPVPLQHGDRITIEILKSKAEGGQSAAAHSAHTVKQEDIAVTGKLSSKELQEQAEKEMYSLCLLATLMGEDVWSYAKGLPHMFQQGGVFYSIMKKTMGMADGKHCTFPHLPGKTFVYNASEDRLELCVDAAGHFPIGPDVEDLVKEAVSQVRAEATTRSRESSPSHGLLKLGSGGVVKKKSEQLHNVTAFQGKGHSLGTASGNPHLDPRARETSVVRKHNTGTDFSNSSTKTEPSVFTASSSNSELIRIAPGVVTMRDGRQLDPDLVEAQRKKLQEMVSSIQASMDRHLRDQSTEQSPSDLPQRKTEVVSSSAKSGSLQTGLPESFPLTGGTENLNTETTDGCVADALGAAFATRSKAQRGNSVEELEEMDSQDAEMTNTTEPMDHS
# assay.summary: log2 ratio of Biotin-Ahx-Ub-VS probe labelling (fragment/DMSO); higher = less target engagement (more negative = stronger competition), active = hit call of the paper (q ≤ 0.05, log2 ratio ≤ -1)
# experimental.parameters: compound concentration: 200 uM; treatment time: 3 h
log2 ratio of Biotin-Ahx-Ub-VS probe labelling for assorted molecules
In your answer, state the number alone without any accompanying words.

molecule | assayed.system | readout.number
CC1CN(c2ccc(NC(=O)CCl)cc2)CC(C)O1 (configuration not stated) | VCPIP1 (UniProt Q96JH7) | -0.624
O=C(CCl)NC1(c2ccc3c(c2)OCCO3)CCCC1 | VCPIP1 (UniProt Q96JH7) | -0.7
CCN(C(=O)CCl)C1CCS(=O)(=O)C1 (configuration not stated) | VCPIP1 (UniProt Q96JH7) | 0.0777
O=C(CCl)N(C1CCCC1)C1CCS(=O)(=O)C1 (configuration not stated) | VCPIP1 (UniProt Q96JH7) | -0.0269

Asked: Look up log2 ratio of Biotin-Ahx-Ub-VS probe labelling: O=C(CCl)NCc1cccc(N2CCCC2=O)c1
Given back: -1.04

Asked: Look up log2 ratio of Biotin-Ahx-Ub-VS probe labelling: Cl.O=C(CCl)N1CCN(Cc2ccccc2)CC1
Given back: -0.476

Asked: Look up log2 ratio of Biotin-Ahx-Ub-VS probe labelling: C[C@@H](NC(=O)CCl)c1cccc(C#N)c1
Given back: -0.466

* * *

# assayed.system: USP10 (UniProt Q14694)
# Sequence (Q14694 whole entry, the tested form may be a part): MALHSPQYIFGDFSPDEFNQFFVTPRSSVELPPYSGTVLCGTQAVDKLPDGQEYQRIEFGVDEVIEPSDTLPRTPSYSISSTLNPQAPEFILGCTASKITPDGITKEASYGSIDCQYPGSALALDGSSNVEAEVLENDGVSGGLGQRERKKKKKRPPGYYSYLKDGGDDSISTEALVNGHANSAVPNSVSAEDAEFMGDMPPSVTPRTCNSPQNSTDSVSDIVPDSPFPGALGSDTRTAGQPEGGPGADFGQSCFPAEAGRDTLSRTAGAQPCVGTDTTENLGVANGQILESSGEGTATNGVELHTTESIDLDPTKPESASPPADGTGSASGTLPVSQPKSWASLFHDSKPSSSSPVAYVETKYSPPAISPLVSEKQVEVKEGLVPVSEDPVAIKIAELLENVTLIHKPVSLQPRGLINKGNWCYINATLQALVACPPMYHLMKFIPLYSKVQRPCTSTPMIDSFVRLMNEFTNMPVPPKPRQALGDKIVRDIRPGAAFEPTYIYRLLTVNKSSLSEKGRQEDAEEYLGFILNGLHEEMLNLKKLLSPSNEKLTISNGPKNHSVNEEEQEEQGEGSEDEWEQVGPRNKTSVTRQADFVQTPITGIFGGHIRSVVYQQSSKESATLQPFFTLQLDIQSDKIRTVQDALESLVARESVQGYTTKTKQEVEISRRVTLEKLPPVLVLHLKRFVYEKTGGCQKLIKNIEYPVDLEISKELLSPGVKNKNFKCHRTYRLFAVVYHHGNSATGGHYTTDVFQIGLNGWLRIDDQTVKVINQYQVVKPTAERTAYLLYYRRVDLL
# assay.summary: log2 ratio of Biotin-Ahx-Ub-VS probe labelling (fragment/DMSO); higher = less target engagement (more negative = stronger competition), active = hit call of the paper (q ≤ 0.05, log2 ratio ≤ -1)
# experimental.parameters: compound concentration: 200 uM; treatment time: 3 h
Categorize each record by its log2 ratio of Biotin-Ahx-Ub-VS probe labelling using bottom end (below -0.2), midrange (-0.2 to below -0.07), top end (-0.07 or more)

Asked: Into which category would you place CNC(=O)C1CCN(C(=O)CCl)CC1 ?
Given back: bottom end

Asked: Into which category would you place Cl.Cn1nc2c(c1CNC(=O)CCl)CCCC2 ?
Given back: bottom end

Asked: Into which category would you place CN1C(=O)c2ccc(NC(=O)CCl)cc2C1=O ?
Given back: top end

Asked: Into which category would you place CNC(=O)Cn1cc(NC(=O)CCl)cn1 ?
Given back: bottom end

Asked: Into which category would you place O=C(CCl)NC1CCOc2ccccc21 (centres undefined) ?
Given back: bottom end

Asked: Into which category would you place O=C(CCl)N1CCc2nc[nH]c2C1c1ccc(Cl)cc1 (centres undefined) ?
Given back: midrange

Asked: Into which category would you place O=C(CCl)N1CCC[C@@H]1c1ccon1 ?
Given back: top end

* * *

# assayed.system: UniProt Q9P2H5
# Sequence (whole entry): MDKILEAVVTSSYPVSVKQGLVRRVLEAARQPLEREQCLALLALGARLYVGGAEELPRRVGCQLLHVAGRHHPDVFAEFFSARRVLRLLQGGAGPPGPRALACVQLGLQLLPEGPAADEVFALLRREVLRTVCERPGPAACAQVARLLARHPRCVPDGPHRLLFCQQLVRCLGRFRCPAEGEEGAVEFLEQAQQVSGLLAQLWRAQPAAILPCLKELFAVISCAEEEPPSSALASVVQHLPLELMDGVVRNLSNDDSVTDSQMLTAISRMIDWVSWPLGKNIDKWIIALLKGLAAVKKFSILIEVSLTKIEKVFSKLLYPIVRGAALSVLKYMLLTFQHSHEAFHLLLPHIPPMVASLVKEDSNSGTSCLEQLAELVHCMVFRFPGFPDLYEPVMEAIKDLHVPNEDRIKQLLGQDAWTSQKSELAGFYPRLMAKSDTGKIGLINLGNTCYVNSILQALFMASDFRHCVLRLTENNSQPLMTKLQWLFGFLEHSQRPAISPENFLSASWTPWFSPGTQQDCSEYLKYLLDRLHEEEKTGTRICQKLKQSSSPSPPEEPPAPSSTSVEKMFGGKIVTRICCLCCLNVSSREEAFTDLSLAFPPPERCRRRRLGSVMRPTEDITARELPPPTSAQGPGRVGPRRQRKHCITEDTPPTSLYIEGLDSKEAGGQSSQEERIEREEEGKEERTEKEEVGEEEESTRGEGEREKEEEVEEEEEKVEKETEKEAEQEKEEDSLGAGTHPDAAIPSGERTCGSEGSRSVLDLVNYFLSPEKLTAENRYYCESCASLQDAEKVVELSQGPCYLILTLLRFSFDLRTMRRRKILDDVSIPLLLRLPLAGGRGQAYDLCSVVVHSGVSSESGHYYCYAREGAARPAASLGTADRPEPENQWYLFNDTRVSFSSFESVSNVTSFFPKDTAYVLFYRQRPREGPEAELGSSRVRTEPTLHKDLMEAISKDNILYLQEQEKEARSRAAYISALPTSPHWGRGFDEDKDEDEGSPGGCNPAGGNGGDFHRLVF
# assay.summary: log2 ratio of Biotin-Ahx-Ub-VS probe labelling (fragment/DMSO); higher = less target engagement (more negative = stronger competition), active = hit call of the paper (q ≤ 0.05, log2 ratio ≤ -1)
# experimental.parameters: compound concentration: 200 uM; treatment time: 3 h
log2 ratio of Biotin-Ahx-Ub-VS probe labelling for assorted compounds
In your answer, state the number alone without any accompanying words.

Solved cases (5 shown):
compound | assayed.system | readout.number
O=C(CCl)N1CCN(C(=O)Nc2ccccc2)CC1 | UniProt Q9P2H5 | -0.158
COc1ccccc1C(C)NC(=O)CCl (stereo unspecified) | UniProt Q9P2H5 | -0.277
O=C(CCl)N1CCC(S(=O)(=O)c2ccc(F)cc2)CC1 | UniProt Q9P2H5 | -0.104
O=C(CCl)N1CCN(C(=O)N2CCCCC2)CC1 | UniProt Q9P2H5 | -0.897
CN(C(=O)CCl)c1nc2ccccc2s1 | UniProt Q9P2H5 | -0.266

Asked: Look up log2 ratio of Biotin-Ahx-Ub-VS probe labelling: CCC(NC(=O)CCl)c1ccc(Cl)cc1 (stereo unspecified)
Given back: -0.319

Asked: Look up log2 ratio of Biotin-Ahx-Ub-VS probe labelling: O=C(CCl)Nc1cc(Cl)ccc1-n1cncn1
Given back: -0.954
